Assay: Microsome stability assay, human liver microsomes
Type: in vitro ADME
Details: 60 min; 1 μM compound, 0.5 mg/mL microsomal protein
OBSERVED_PROPERTY: Microsome Stability Human liver microsomes % Remaining @60 min (%)
Just the number in %, nothing appended.

Microsome Stability Human liver microsomes % Remaining @60 min for `COc1ccc2c(c1)Sc1cc(OC)ccc1C2NC(=O)c1ccc(C(F)(F)F)[nH]c1=O` ?
78

Next: CCC1CCc2cc(C)ccc2C1NC(=O)c1ccc(C(F)(F)F)[nH]c1=O (centres unmarked)
0.36

More entries:
Entry CCC1CCc2cc(OC)ccc2C1NC(=O)c1ccc(C(F)(F)F)[nH]c1=O (centres unmarked) : reported Microsome Stability Human liver microsomes % Remaining @60 min = ?
11

Param item: COc1ccc2c(c1)CC(OC)C2NC(=O)c1ccc(C(F)(F)F)[nH]c1=O (centres unmarked)
5.86

Query CCC1CCc2cc(Cl)ccc2C1NC(=O)c1ccc(C(F)(F)F)[nH]c1=O (centres unmarked) next
1.24

====

Target: HSD17B13 (Homo sapiens (Human), UniProt Q7Z5P4)
Sequence (Q7Z5P4 other isoform, or with tags, fused parts or gaps): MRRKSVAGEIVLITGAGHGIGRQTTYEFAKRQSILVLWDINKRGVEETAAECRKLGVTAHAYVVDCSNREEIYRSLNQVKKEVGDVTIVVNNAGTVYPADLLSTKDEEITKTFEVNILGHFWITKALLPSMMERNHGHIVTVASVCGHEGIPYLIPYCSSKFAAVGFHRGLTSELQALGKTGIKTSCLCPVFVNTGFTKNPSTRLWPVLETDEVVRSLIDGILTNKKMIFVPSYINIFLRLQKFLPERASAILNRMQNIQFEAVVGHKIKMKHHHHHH
Assay: HSD17B13 enzymatic inhibition assay (150 nM or 50 nM HSD17B13)
Assay type: biochemical
Settings: 50 nM HSD17B13; read-out: Inhibition of 50 nM of HSD17B13 IC50
Lab note: anything with IC50 below 200 nM is marked 1.0; values at 200 nM or higher are marked 0.0.

Completed entries (count: 6):
For O=C(NC(c1ccc(Cl)cc1)c1cncnc1)c1ccc(C(F)(F)F)[nH]c1=O (centres unmarked) , is the recorded IC50 below the cut-off of 200 nM?
0.0

Now the molecule `Cc1ccc2c(c1)Oc1cc(C)ccc1C2NC(=O)c1cc(Cc2ccccc2)c(C(F)(F)F)[nH]c1=O`
1.0

Same for C=CCc1ccc2c(c1)C(NC(=O)c1ccc(C(F)(F)F)[nH]c1=O)c1ccccc1O2 (centres unmarked)
0.0

Further, for Nc1ccc(C(NC(=O)c2ccc(C(F)(F)F)[nH]c2=O)c2ccccc2)cc1 (centres unmarked) ?
0.0

Same read-out for CCCC1=Cc2ccc(C)cc2C1NC(=O)c1ccc(C(F)(F)F)[nH]c1=O (centres unmarked) ?
1.0

Then what about the molecule Cc1ccccc1C(NC(=O)c1ccc(C(F)(F)F)[nH]c1=O)c1ccccc1 (centres unmarked) ?
0.0

Further cases:
A record lists O=C(NC1c2ccccc2Oc2cnccc21)c1ccc(C(F)(F)F)[nH]c1=O (centres unmarked) . Is its IC50 below 200 nM?
0.0

Now try `Cc1ccc2c(c1)[C@H](O)CC[C@H]2NC(=O)c1ccc(C(F)(F)F)[nH]c1=O` .
1.0

Next: `O=C(Nc1cccc2cc(O)ccc12)c1ccc(C(F)(F)F)[nH]c1=O`
0.0

Let us now turn to CCCC(NC(=O)c1ccc(C(F)(F)F)[nH]c1=O)c1ccc(C)cc1 (centres unmarked)
0.0

Follow-up entry: O=C(NC1CCCc2c(O)cccc21)c1ccc(C(F)(F)F)[nH]c1=O (centres unmarked)
0.0

Field entry: Cc1ccc2c(c1)OC(C)CC2NC(=O)c1ccc(C(F)(F)F)[nH]c1=O (centres unmarked)
1.0

Same for Cc1ccc2c(c1)Oc1ccncc1C2NC(=O)c1ccc(C(F)(F)F)[nH]c1=O (centres unmarked)
1.0

Same question for Cc1ccc2c(c1N)CCC2NC(=O)c1ccc(C(F)(F)F)[nH]c1=O (centres unmarked) please.
0.0

Try the molecule Cc1ccc2c(c1)C(NC(=O)c1ccc(C(F)(F)F)[nH]c1=O)c1ccccc1-2 (centres unmarked)
1.0

Proceed to Cc1cc(C(F)(F)F)[nH]c(=O)c1C(=O)NC1c2ccccc2Oc2cc(Cl)ccc21 (centres unmarked)
0.0

How about this molecule: `COc1ccc2c(c1)Sc1cc(OC)ccc1C2NC(=O)c1ccc(C(F)(F)F)[nH]c1=O`
1.0

Values from patent US11957687B2
